These data points were gathered from ChEMBL document CHEMBL1139907.

Experiment: Inhibition of HCV NS5B polymerase
Parameters: species or system Hepacivirus hominis
pIC50: −log10 of the molar value.
value type: pIC50

Cn1c(-c2ccc(OCc3cc(N4CCCC4=O)ccc3N3CCOCC3)cc2)c(C2CCCCC2)c2ccc(C(=O)O)cc21    8.14
O=C(O)c1ccc2c(c1)nc(-c1ccc(OCc3cc(N4CCCC4=O)ccc3N3CCC(C(=O)O)CC3)cc1F)n2C1CCCCC1    6.74
O=C(O)c1ccc2c(c1)nc(-c1ccc(OCc3ccccc3N3CCOCC3)cc1F)n2C1CCCCC1    6.89
O=C(O)c1ccc2c(c1)cc(-c1ccc(OCc3cc(N4CCCC4=O)ccc3N3CCOCC3)cc1)n2C1CCCCC1    7.52

a = O=C(O)c1ccc2c(C3CCCCC3)c3n(c2c1)CCOc1cc(OCc2cc(N4CCCC4=O)ccc2-c2ccc(Cl)cc2)ccc1-3
b = CC(C)NC(=O)c1ccc(N2CCOCC2)c(COc2ccc(-c3nc4cc(C(=O)O)ccc4n3C3CCCCC3)c(F)c2)c1
c = O=C(O)c1ccc2c(c1)nc(-c1ccc(OCc3cc(N4CCCC4=O)ccc3N3CCC(O)CC3)cc1F)n2C1CCCCC1
d = O=C(O)c1ccc2c(c1)nc(-c1ccc(OCc3cc(N4CCCCC4=O)ccc3N3CCOCC3)cc1F)n2C1CCCCC1
Query: Sort the compounds on pIC50; start with the lowest figure. As an answer, provide the labels arranged in the order called for.
Response: c, d, b, a

====

Assay: Inhibition of HCV NS5B polymerase
Design: species or system Hepacivirus hominis
pIC50: −log10 of the molar value.
value type: pIC50

The examples below pair each entry with its known result.
O=C(O)c1ccc2c(c1)nc(-c1ccc(OCc3cc(N4CCCC4=O)ccc3N3CCOCC3=O)cc1F)n2C1CCCCC1    6.00
CC(=O)N(C)c1ccc(N2CCOCC2)c(COc2ccc(-c3nc4cc(C(=O)O)ccc4n3C3CCCCC3)c(F)c2)c1    7.29
O=C(O)c1ccc2c(c1)nc(-c1ccc(OCc3cc(N4CCCC4=O)ccc3N3CCOCC3)cc1F)n2C1CCCCC1    7.18
CC(=O)N1CCN(c2ccc(N3CCCC3=O)cc2COc2ccc(-c3nc4cc(C(=O)O)ccc4n3C3CCCCC3)c(F)c2)CC1    6.96
O=C(O)c1ccc2c(c1)nc(-c1ccc(OCc3cc(Cl)ccc3N3CCOCC3)cc1F)n2C1CCCCC1    7.00

A = COc1ccc(N2CCCC2=O)cc1COc1ccc(-c2nc3cc(C(=O)O)ccc3n2C2CCCCC2)c(F)c1
B = O=C(O)c1ccc2c(c1)nc(-c1ccc(OCc3cc(N4CCCS4(=O)=O)ccc3N3CCOCC3)cc1F)n2C1CCCCC1
Query: Given A and B , report the one with the higher recorded pIC50. Identify your pick by its label.
Response: B

I = COCCN(C)c1ccc(N2CCCC2=O)cc1COc1ccc(-c2nc3cc(C(=O)O)ccc3n2C2CCCCC2)c(F)c1
II = O=C(O)c1ccc2c(C3CCCCC3)c3n(c2c1)CCOc1cc(OCc2cc(N4CCCC4=O)ccc2N2CCOCC2)ccc1-3
Query: Given I and II , report the one with the higher recorded pIC50. Identify your pick by its label.
Response: II
(II: 8.14, I: 6.59)

P = CN1CCN(c2ccc(N3CCCC3=O)cc2COc2ccc(-c3nc4cc(C(=O)O)ccc4n3C3CCCCC3)c(F)c2)CC1
Q = CC(=O)N(c1ccc(N2CCOCC2)c(COc2ccc(-c3nc4cc(C(=O)O)ccc4n3C3CCCCC3)c(F)c2)c1)C(C)C
R = O=C(O)c1ccc2c(c1)nc(-c1ccc(OCc3cc(N4CCCC4=O)ccc3Oc3ccc(Cl)cc3)cc1F)n2C1CCCCC1
Query: Sort the molecules on pIC50; start with the lowest figure. As an answer, provide the labels arranged in the order called for.
Response: R, P, Q
(R: 6.64, P: 6.89, Q: 7.38)
